experimental.target: GST-CIB1 : F-scrambled peptide (Homo sapiens, UniProt Q99828)
Construct: made in house; host or cells: BL-21 plus RIL cells (E. coli)
Sequence (Q99828 whole entry): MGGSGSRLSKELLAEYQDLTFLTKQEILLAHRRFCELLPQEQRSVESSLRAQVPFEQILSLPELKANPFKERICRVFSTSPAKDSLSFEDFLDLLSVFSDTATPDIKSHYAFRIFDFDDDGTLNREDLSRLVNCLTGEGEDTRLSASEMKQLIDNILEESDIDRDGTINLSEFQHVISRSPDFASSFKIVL
experiment.summary: FP scrambled-peptide counter screen, 1536-well format
Format: binding
measurement.setup: Table S3, counterscreen; negative = inhibition
Each record here notes measured Efficacy (%) (counterscreen).
Field note: include the unit after the figure.

# example entries with known answers
compound="CC(=O)c1c(O)cc2c(c1C)C(=O)CC(O)C2 (stereo not drawn) [NCGC00380695-01]" value=0%
compound="O=C(NC(c1ccco1)c1cc(Cl)c2cccnc2c1O)c1cccs1.O=C(O)C(F)(F)F (stereo not drawn) [NCGC00188375-01]" value=81%
compound="C[C@@H](NCc1cc2ccccc2[nH]1)c1cccc2ccccc12.Cl [NCGC00344505-01]" value=-21%
compound="O=C([O-])c1c(Cl)c(Cl)c(Cl)c(Cl)c1-c1c2cc(I)c(=O)c(I)c-2oc2c(I)c(O)c(I)cc12.[Na+] [NCGC00159508-05]" value=311%
compound="Nc1ccc(O)c(C(=O)O)c1 [NCGC00016344-07]" value=154%

query: State its Efficacy (%) (counterscreen) for this compound: CN(C)CCCNC(=O)c1ccc(-c2cc(O)c3ncccc3c2)cc1 [NCGC00183808-06]
result: -38%

query: State its Efficacy (%) (counterscreen) for this compound: O=C(O)c1csc(-n2nc(-c3ccc(F)c(F)c3)c3cccnc32)n1 [NCGC00356667-01]
result: 64%

query: State its Efficacy (%) (counterscreen) for this compound: CCCCCCCCn1cc(CC(N)=O)c2cc(-c3cccc(C)c3)ccc21.O=C(O)C(F)(F)F [NCGC00348156-02]
result: -121%

query: State its Efficacy (%) (counterscreen) for this compound: CN1CCc2cccc3c2[C@H]1Cc1ccc(O)c(O)c1-3 [NCGC00025349-05]
result: -34%
